// data source = paper PMC7793522

molecular target: T1, EBV peptide on HLA-B*35:08 (human); assay: data from [95]; method not given; soluble, other
T1 peptide: LPEPLPQGQLTAY
Observable: Kd (µM)
Entry rule: numbers only, all in µM.

// Input: SB27 (TCR) alpha TRAV19*01 CDR3: ALSGFYNTDKLI beta TRBV6-1*01 CDR3: ASPGLAGEYEQY . Output its Kd only.
9.9
